Origin of the recorded values: patent US10947242B2

biological target: Human recombinant PDE10A (hPDE10A) (Homo sapiens); construct: His tag (inferred from metal chelate purification); made in house; host or cells: Sf9 insect cells (baculovirus); experiment: In vitro assay PDE10A, human clone (SPA, 3H-cAMP hydrolysis); type: biochemical; conditions: human clone (h), default; read-out: hPDE10A2 Emax
Sequence (Q9Y233 267-1055): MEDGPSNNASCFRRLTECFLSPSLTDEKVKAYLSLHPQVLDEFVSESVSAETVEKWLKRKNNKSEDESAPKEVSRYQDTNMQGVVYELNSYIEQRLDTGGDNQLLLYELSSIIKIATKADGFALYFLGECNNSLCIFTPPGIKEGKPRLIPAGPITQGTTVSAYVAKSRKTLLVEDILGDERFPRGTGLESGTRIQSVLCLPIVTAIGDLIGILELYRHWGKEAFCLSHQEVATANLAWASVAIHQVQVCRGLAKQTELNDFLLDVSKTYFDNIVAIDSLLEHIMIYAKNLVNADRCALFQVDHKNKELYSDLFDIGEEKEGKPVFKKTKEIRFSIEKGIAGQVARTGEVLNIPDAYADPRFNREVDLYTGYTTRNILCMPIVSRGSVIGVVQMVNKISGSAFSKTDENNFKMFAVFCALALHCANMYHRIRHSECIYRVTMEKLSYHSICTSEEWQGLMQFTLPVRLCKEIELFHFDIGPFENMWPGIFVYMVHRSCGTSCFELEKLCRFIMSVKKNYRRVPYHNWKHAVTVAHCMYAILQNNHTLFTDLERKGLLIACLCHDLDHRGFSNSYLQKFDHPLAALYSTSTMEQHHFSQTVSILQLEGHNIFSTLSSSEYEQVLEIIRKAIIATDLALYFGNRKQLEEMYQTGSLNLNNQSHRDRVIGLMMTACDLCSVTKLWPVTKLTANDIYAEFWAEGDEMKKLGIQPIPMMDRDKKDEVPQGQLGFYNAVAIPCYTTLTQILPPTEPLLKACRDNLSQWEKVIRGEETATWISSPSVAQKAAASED
readout.label: Emax (%)

In [3]: df
Out[3]:
                                    compound                         target_under_test  numeric_result
 0  Cc1cc([C@@H]2CN(C(=O)c3ccc4occ(C)c4c3)CC[C@H]2C)n2ncnc2n1 [Compound 5]  Human recombinant PDE10A (hPDE10A) (Homo sapiens)             100
 1  Cc1cc([C@H]2CN(C(=O)c3ccc(C)c(C)n3)CC[C@@H]2C)n2ncnc2n1 [Compound 3b]  Human recombinant PDE10A (hPDE10A) (Homo sapiens)              19
 2  Cc1cc([C@@H]2CN(C(=O)c3ccc4nccn4c3)CC[C@H]2C)n2ncnc2n1 [Compound 99]  Human recombinant PDE10A (hPDE10A) (Homo sapiens)             100
 3  C[C@@H]1CCN(C(=O)c2ccc(Cl)c(Cl)c2)C[C@H]1c1cc(C(F)F)nc2ncnn12 [Compound 111]  Human recombinant PDE10A (hPDE10A) (Homo sapiens)              99
 4  C[C@@H]1CCN(C(=O)c2ccncc2C(F)(F)F)C[C@H]1c1cc(C(F)F)nc2ncnn12 [Compound 239]  Human recombinant PDE10A (hPDE10A) (Homo sapiens)              43
 5  C[C@@H]1CCN(C(=O)c2cc3ccc(C(F)(F)F)cc3[nH]2)C[C@H]1c1cc(C(F)F)nc2ncnn12 [Compound 94]  Human recombinant PDE10A (hPDE10A) (Homo sapiens)              97
 6  Cc1cc(C(=O)N2CC[C@@H](C)[C@H](c3cc(C(F)F)nc4ncnn34)C2)c(Cl)cn1 [Compound 51]  Human recombinant PDE10A (hPDE10A) (Homo sapiens)              86
 7  C[C@@H]1CCN(C(=O)c2ccc(C(C)(C)C)o2)C[C@H]1c1cc(C(F)F)nc2ncnn12 [Compound 136]  Human recombinant PDE10A (hPDE10A) (Homo sapiens)              97
 8  C[C@@H]1CCN(C(=O)c2cc(C(C)(C)C)nc(C(C)(C)C)c2)C[C@H]1c1cc(C(F)F)nc2ncnn12 [Compound 266]  Human recombinant PDE10A (hPDE10A) (Homo sapiens)              89
 9  Cc1ccc(C(=O)N2CC[C@@H](C)[C@H](c3cc(C(F)F)nc4ncnn34)C2)c(C)n1 [Compound 143]  Human recombinant PDE10A (hPDE10A) (Homo sapiens)              77
10  Cc1cc(C)cc(C(=O)N2CC[C@H](C)[C@@H](c3cc(C(F)F)nc4ncnn34)C2)c1 [Compound 214]  Human recombinant PDE10A (hPDE10A) (Homo sapiens)              30
11  Cc1c(C(=O)N2[C@H]3CC[C@@H]2[C@H](c2cc(C(F)F)nc4ncnn24)CC3)oc2ccccc12 [Compound 140]  Human recombinant PDE10A (hPDE10A) (Homo sapiens)              83
12  C[C@@H]1CCN(C(=O)c2cncnc2)C[C@H]1c1cc(C(F)F)nc2ncnn12 [Compound 249]  Human recombinant PDE10A (hPDE10A) (Homo sapiens)              45
13  Cc1cc(C(=O)N2CC[C@@H](C)[C@H](c3cc(C(F)F)nc4ncnn34)C2)cc(C(C)C)n1 [Compound 101]  Human recombinant PDE10A (hPDE10A) (Homo sapiens)              98
14  C[C@@H]1CCN(C(=O)c2ccnc(Cl)c2)C[C@H]1c1cc(C(F)F)nc2ncnn12 [Compound 42]  Human recombinant PDE10A (hPDE10A) (Homo sapiens)              95
15  Cc1cnc(C(=O)N2CC[C@@H](C)[C@H](c3cc(C(F)F)nc4ncnn34)C2)cn1 [Compound 232]  Human recombinant PDE10A (hPDE10A) (Homo sapiens)              48
16  Cc1cc([C@@H]2CN(C(=O)c3cc4c(nc3Cl)CCCC4)CC[C@H]2C)n2ncnc2n1 [Compound 12]  Human recombinant PDE10A (hPDE10A) (Homo sapiens)              97
17  C[C@@H]1CCN(C(=O)c2cc(Cl)cnc2C(F)(F)F)C[C@H]1c1cc(C(F)F)nc2ncnn12 [Compound 39]  Human recombinant PDE10A (hPDE10A) (Homo sapiens)              75
18  Cc1ncoc1C(=O)N1CC[C@@H](C)[C@H](c2cc(C(F)F)nc3ncnn23)C1 [Compound 156]  Human recombinant PDE10A (hPDE10A) (Homo sapiens)              81
19  C[C@]1(c2cc(C(F)F)nc3ncnn23)CCCN(C(=O)c2ccc3nccn3c2)C1 (single isomer, unassigned) [Compound 212]  Human recombinant PDE10A (hPDE10A) (Homo sapiens)               8
20  C[C@@H]1CCN(C(=O)c2ccc(O)c(F)c2)C[C@H]1c1cc(C(F)F)nc2ncnn12 [Compound 168]  Human recombinant PDE10A (hPDE10A) (Homo sapiens)              99
21  Cc1cc([C@@H]2CN(C(=O)c3ccc(C(C)(C)C)o3)CC[C@H]2C)n2ncnc2n1 [Compound 9]  Human recombinant PDE10A (hPDE10A) (Homo sapiens)             100
22  Cc1csc(C(=O)N2CC[C@H](C)[C@@H](c3cc(C(F)F)nc4ncnn34)C2)c1 [Compound 213]  Human recombinant PDE10A (hPDE10A) (Homo sapiens)              23
23  C[C@@H]1CCN(C(=O)c2nccnc2Cl)C[C@H]1c1cc(C(F)F)nc2ncnn12 [Compound 237]  Human recombinant PDE10A (hPDE10A) (Homo sapiens)              51
24  C[C@@H]1CCN(C(=O)c2ccc(C(F)(F)F)nc2)C[C@H]1c1cc(C(F)F)nc2ncnn12 [Compound 167]  Human recombinant PDE10A (hPDE10A) (Homo sapiens)              81
25  C[C@@H]1CCN(C(=O)c2cc3ccccc3n2C)C[C@H]1c1cc(C(F)F)nc2ncnn12 [Compound 114]  Human recombinant PDE10A (hPDE10A) (Homo sapiens)             101
26  C[C@@H]1CCN(C(=O)c2cccc(C(F)(F)F)c2F)C[C@H]1c1cc(C(F)F)nc2ncnn12 [Compound 148]  Human recombinant PDE10A (hPDE10A) (Homo sapiens)              89
27  Cc1cc(C(=O)N2CC[C@@H](C)[C@H](c3cc(C(F)F)nc4ncnn34)C2)cc(Cl)n1 [Compound 83]  Human recombinant PDE10A (hPDE10A) (Homo sapiens)              98
28  Cc1cc([C@@H]2CN(C(=O)c3cc(C)c(F)c(C)c3)CC[C@H]2C)n2ncnc2n1 [Compound 117]  Human recombinant PDE10A (hPDE10A) (Homo sapiens)              99
29  Cc1cc(C(=O)N2CC[C@@H](C)[C@H](c3cc(C)nc4ncnn34)C2)cc(C(F)(F)F)n1 [Compound 4]  Human recombinant PDE10A (hPDE10A) (Homo sapiens)              99
